All values here come from the supplement of paper PMC10567573.

- run description: protein stability index of a GFP-peptide fusion (GPS, HEK-293T) (PSI 1-6); higher = more stable;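 further: 24-mer peptide tiles fused after GFP, lentivirally expressed, FACS-sorted into six equal bins by GFP/DsRed ratio, decoded by Illumina sequencing, PSI is the read-weighted mean bin number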
- cond: treatment: MLN4924 1 uM, 8 h; c terminus: a fixed tail appended
Lab note: anything with protein stability index at or over 4 counts as yes (1); the rest go in no (0).

In [3]: df
Out[3]:
                            residues  label_class
0  RRASICCTQLGSLSALKHAVLGLY [SCARA5]       no (0)

Problem: Say whether ASLNHLDSHILLCLMGLAETPGCA [DCAF4] shows protein stability index of 4 or more.
Result: no (0)

Problem: Decide: is the reported value of protein stability index for GSIGVWHYICPRLGGIGFSSCIVC [SLC6A17] equal to or greater than 4?
Result: no (0)
